# Assay comment: qHTS assay to identify small molecule agonists of the estrogen receptor beta (ER-beta) signaling pathway - cell viability counter screen (AID 1259380); note: nearly all actives have a fitted effect of over 30% in size
# Stated conditions: ER-beta-bla HEK293T viability, CellTiter-Glo luminescence, 16 h; series mostly up to 92.4 µM
Records with an inconclusive call do not appear. The source made the active and inactive calls. Calls come from the whole dose curve; as a rule, active = well fitted cell-killing curve with a large enough effect in the repeat runs; inconclusive = weak or mixed curves, or effect the other way; inactive = flat fitted curve, though single readings scatter.
Your answer must be one of the following: Y (active), N (inactive)

Example entries begin here.
| Molecule | Assigned class |
| --- | --- |
| O=S(=O)(O)c1ccc2nc(-c3ccccc3)[nH]c2c1 | Y |
| CCCNC(C)C(=O)Nc1ccccc1C (stereo unspecified) | N |

Ask: For C=C(C)C1CC=C(C)C(OC(C)=O)C1 (stereo unspecified) , what call appears in the results of this test?
Reply: N

Ask: GET /call?item= CCOc1ccc2c(c1)C(C)=CC(C)(C)N2 returns the recorded outcome of this test.
Reply: N

Ask: Could you please tell me the result logged for O=C(O)c1cccc(C(=O)O)c1 in this assay?
Reply: N

Ask: Called result for O
Reply: N

Ask: Any idea what this test logged for O=C(O)CCc1ccccc1 ?
Reply: N

Ask: So what was the verdict on CC(=O)C1=C(C)[C@@H]2C[C@@]3(C1)[C@H](C)CC[C@H]3C2(C)C in this test?
Reply: N

Ask: // outcome(item) with item = O=C1OC2(c3ccc(O)cc3Oc3cc(O)ccc32)c2ccccc21
Reply: N

Ask: Call for entry N[C@@H]1CONC1=O :
Reply: N

Ask: Which outcome was entered for the molecule C[N+]1([O-])CCOCC1 in this test?
Reply: N
